These measurements were taken from ChEMBL document CHEMBL1157727.

Experiment: in vitro
Conditions: human, microsomes
property_label: remaining at 1 h (%)
Respond with the bare value in %.

May I ask what remaining at 1 h has been recorded for C[C@@H]1CC[C@H](C)N1C(=O)c1ccc([C@@H](C)NC(=O)C2(NC(=O)c3cc(F)cc(C(F)(F)F)c3)CC2)c(F)c1 ?
9
